- ASSAY TARGET: T1, human LILRB4 (human, UniProt Q8NHJ6 22-448)
- T1 construct: whole, on cells; also called hLILRB4
- ASSAY: FACS, 293F-hLILRB4 cells
MEASUREMENT LABEL: Max MFI (MFI)
Numeric answer only, unit MFI assumed.

>>> readout_value("ch7-B4-C1-C9 (antibody, V domains shown) VH: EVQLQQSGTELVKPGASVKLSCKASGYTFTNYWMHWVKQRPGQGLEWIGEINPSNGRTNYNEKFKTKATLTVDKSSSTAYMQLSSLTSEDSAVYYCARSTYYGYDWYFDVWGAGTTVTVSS VL: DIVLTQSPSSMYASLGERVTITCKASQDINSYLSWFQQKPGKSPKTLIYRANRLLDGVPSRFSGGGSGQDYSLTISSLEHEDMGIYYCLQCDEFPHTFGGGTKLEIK")
47300

Note: attention shifts to another entry.
Task: Please give the measured Max MFI for this binder: ch2-H8-C9-F7-E2 (antibody, V domains shown) VH: EVQLQQSGAELVKPGASVKLSCKASGYTFTNYWMHWVKQRPGQGLEWIGEINPSNGRTNYNEKFKSKATLTVDKSSSTAYMQLSSLTSEDSAVYYCARGSLTTVVPFDYWGQGTTLTVSS VL: DIQMTQTPSSLSASLGGKVTITCKASQDINNYIAWYQHKPGKGPRLLIHYTSTLQPGIPSRFSGSGSGRDYSFSISNLEPEDIATYFCLQYDILLTFGGGTKLEK
Result: 41000
